The origin of these recorded values is patent US11214803B2.

Attribute: IC50
Tested on: Yap1 mRNA
Test: Dose-dependent inhibition of human Yap1 in A-431 cells (Example 8, 10,000 cells per well, RTS4814)
Format: cell-based
Conditions: A-431 cells, free uptake, approximately 48 hours, RTS4814; linear regression on log/linear plot
Strand notation (5' to 3'): a small letter for the sugar, then the base; units joined by * are phosphorothioate-linked, units joined directly phosphodiester-linked; [ ] holds rarer units or linkages, { } end groups; capitals alone tell only the bases. k = constrained ethyl (cEt); [5mC] = 5-methylcytosine; d = 2'-deoxy (DNA)

SUBSTANCE: 1074313 (antisense kT*kG*kA*dT*dA*dT*dT*d[5mC]*d[5mC]*dG*d[5mC]*dA*dT*kT*kG*k[5mC]) [compound 1074313]
IC50: < 20 nM
//
SUBSTANCE: 1074639 (antisense kT*kA*kG*dA*dT*dT*dT*dT*dG*dT*dA*dA*dT*kT*kG*kG) [compound 1074639]
IC50: < 20 nM
//
SUBSTANCE: 1076490 (k[5mC]*k[5mC]*kA*dA*dA*dA*dT*dA*dG*dG*dT*dG*dA*kG*kT*k[5mC]; antisense) [compound 1076490]
IC50: < 20 nM
